read-out: Thyroid Hormone Responsive (THRSP), THRSP (gene 7069); assay: LTEA_HepaRG_THRSP: Life Technologies and Expression Analysis (LTEA) Assay for Thyroid Hormone Responsive (THRSP) using HepaRG (AID 2283536); settings: mRNA level, 48 h; actives raise or lower the signal
The source made the active and inactive calls. The calls were made as follows: active = hit-call score of the fitted dose curve at least 0.9, where 1 is the maximum; inactive = score below 0.9.
Classes used: YES for active, NO for inactive

| compound | categoryLabel |
| --- | --- |
| Fc1ccc(Oc2ccnc3cc(Cl)cc(Cl)c23)cc1 | YES |
| N#Cc1nn(-c2c(Cl)cc(C(F)(F)F)cc2Cl)c(N)c1S(=O)C(F)(F)F (configuration not stated) | YES |
| Cc1cc(Cl)ccc1OCC(=O)O | NO |
| COC(=O)C(C)Oc1ccc(Oc2ccc(Cl)cc2Cl)cc1 (configuration not stated) | YES |
| CC1COC(Cn2cncn2)(c2ccc(Oc3ccc(Cl)cc3)cc2Cl)O1 (configuration not stated) | YES |
| CCCCNC(=O)n1c(NC(=O)OC)nc2ccccc21 | NO |
| COc1nc(NC(C)C)nc(NC(C)C)n1 | NO |
| CNC(=S)S | NO |
| Oc1ccccc1-c1ccccc1 | NO |
| CCc1nn(C)c(C(=O)NCc2ccc(C(C)(C)C)cc2)c1Cl | YES |
| COc1ccc(C(c2ccc(OC)cc2)C(Cl)(Cl)Cl)cc1 | YES |
| CCOC(=O)C(Cl)Cc1cc(-n2nc(C)n(C(F)F)c2=O)c(F)cc1Cl (configuration not stated) | NO |

---

read-out: Forkhead box O3 (FOXO3), FOXO3 (gene 2309); assay: LTEA_HepaRG_FOXO3: Life Technologies and Expression Analysis (LTEA) Assay for Forkhead box O3 (FOXO3) using HepaRG (AID 2283459); details: mRNA level, 48 h; actives raise or lower the signal
Activity calls are given as the source filed them. The calls were made as follows: active = hit-call score of the fitted dose curve at least 0.9, where 1 is the maximum; inactive = score below 0.9.
Classes used: Yes for active, No for inactive

| compound | categoryLabel |
| --- | --- |
| O=C(Nc1ccccc1)Nc1ccnc(Cl)c1 | Yes |
| OC(c1ccc(Cl)cc1)(c1cncnc1)c1ccccc1Cl (stereo unspecified) | No |
| C=CCC1=C(C)C(OC(=O)C2C(C=C(C)C)C2(C)C)CC1=O (stereo unspecified) | No |
| CCCCOC(=O)c1ccccc1C(=O)OCCCC | No |
| CCON=C(CC)C1=C(O)CC(c2c(C)cc(C)cc2C)CC1=O (stereo unspecified) | No |
| CCOc1cc(Oc2ccc(C(F)(F)F)cc2Cl)ccc1[N+](=O)[O-] | No |

---

read-out: ABC Transporter (ABCB11), ABCB11 (gene 8647); test: LTEA_HepaRG_ABCB11: Life Technologies and Expression Analysis (LTEA) Assay for ABC Transporter (ABCB11) using HepaRG (AID 2283463); conditions: mRNA level, 48 h; actives raise or lower the signal
Activity calls are given as the source filed them. The calls were made as follows: active = hit-call score of the fitted dose curve at least 0.9, where 1 is the maximum; inactive = score below 0.9.
Classes used: active, inactive

| molecule | categoryLabel |
| --- | --- |
| CCCC1COC(Cn2cncn2)(c2ccc(Cl)cc2Cl)O1 (centres undefined) | active |
| CCOC(=O)CC(SP(=S)(OC)OC)C(=O)OCC (centres undefined) | inactive |
| CS/C(C)=N/OC(=O)N(C)SN(C)C(=O)O/N=C(\C)SC | active |
| CC1=C(C(=O)Nc2ccccc2)SCCO1 | active |
| N#CC(CCc1ccc(Cl)cc1)(Cn1cncn1)c1ccccc1 (centres undefined) | active |
| CCCCC(CC)COC(=O)c1ccccc1C(=O)OCC(CC)CCCC (centres undefined) | inactive |
| CCOC(=O)C(Cl)Cc1cc(-n2nc(C)n(C(F)F)c2=O)c(F)cc1Cl (centres undefined) | inactive |
| COP(=S)(OC)Oc1nc(Cl)c(Cl)cc1Cl | active |
| COC(=O)C(C)Oc1ccc(Oc2ccc(Cl)cc2Cl)cc1 (centres undefined) | active |
